Test system: Jurkat (acute T-cell leukemia, ATCC TIB-152)
Assay: Cytotoxicity, MTT assay, Jurkat
Type: cell-based, human
Details: Homo sapiens, long-term exposure (96 h), MTT assay, errors as 95% confidence intervals
PROPERTY MEASURED: IC50

// query Can you look up IC50 on Jurkat (acute T-cell leukemia, ATCC TIB-152) for Cn1c(CCCC(=O)OCCN2CCOCC2)nc2cc(N(CCCl)CCCl)ccc21 ?
// result 4.2 µM

---

System: MG-63 (osteosarcoma, ATCC CRL-1427)
Assay: Cytotoxicity, crystal violet assay, MG-63
Format: cell-based, human
Settings: Homo sapiens; MG-63, long-term exposure (96 h), crystal violet assay; errors as 95% confidence intervals
PROPERTY MEASURED: IC50 (µM)
Write the answer as a number in µM, unit excluded.

// query Quick one: IC50 of Cn1c(CCCC(=O)OCCN2CCOCC2)nc2cc(N(CCCl)CCCl)ccc21 ?
// result 3.4
